Hi there, I'd appreciate the recorded GPI/MVD IC50 ratio for every entry that follows.
Test system: mouse vas deferens (MVD)
Experiment: Mouse vas deferens (MVD) bioassay: inhibition of electrically evoked contractions
Type: cell-based
Details: ratio of GPI IC50 to MVD IC50
Where a SMILES comes first, the peptide text is derived from it. [ ]: non-standard residue; d: D form. The star is where a group is joined. Tic = O=C(O)[C@@H]1Cc2ccccc2CN1; NHPhenethyl = c1ccc(CCN*)cc1
Output: the number by itself.

Qu. Reported GPI/MVD IC50 ratio for N[C@@H](Cc1ccc(O)cc1)C(=O)N1Cc2ccccc2C[C@H]1C(=O)NCCc1ccccc1[N+](=O)[O-] [Example 29] : what is it?
Ans. 63.6

Qu. Likewise for N[C@@H](Cc1ccc(O)cc1)C(=O)N1Cc2ccccc2C[C@H]1C(=O)NCCc1ccccc1 [H-Tyr-Tic-NH--CH2 --CH2 --Ph, reference compound] (H-Tyr-[Tic]-NHPhenethyl) ?
Ans. 25.9

Qu. Likewise for N[C@@H](Cc1ccc(O)cc1)C(=O)N1Cc2ccccc2C[C@H]1C(=O)NCC(c1ccc([N+](=O)[O-])cc1)c1ccc([N+](=O)[O-])cc1 [Example 24] ?
Ans. 584

Qu. Likewise for N[C@@H](Cc1ccc(O)cc1)C(=O)N1Cc2ccccc2C[C@H]1C(=O)NCC(C1CCCCC1)C1CCCCC1 [Example 23] ?
Ans. 73.5

Qu. Likewise for N[C@@H](Cc1ccc(O)cc1)C(=O)N1Cc2ccccc2C[C@H]1C(=O)NCCc1ccccc1Br [Example 5] ?
Ans. 44.1

Qu. Likewise for NC(=O)C(CNC(=O)[C@@H]1Cc2ccccc2CN1C(=O)[C@@H](N)Cc1ccc(O)cc1)c1ccccc1 (single isomer, unassigned) [Example 17] ?
Ans. 62.9

Qu. Likewise for CCOC(=O)C(CNC(=O)[C@@H]1Cc2ccccc2CN1C(=O)[C@@H](N)Cc1ccc(O)cc1C)c1ccccc1 (single isomer, unassigned) [Example 30] ?
Ans. 510

Qu. Likewise for CCOC(=O)C(CNC(=O)[C@@H]1Cc2ccccc2CN1C(=O)[C@@H](N)Cc1ccc(O)cc1C)c1ccccc1 (single isomer, unassigned) [Example 31] ?
Ans. 388

Qu. Likewise for NC(Cc1ccc(O)cc1)C(=O)N1Cc2ccccc2CC1C(=O)NCC(c1ccccc1)c1ccccc1 (stereo not drawn) [Example 1, H-Tyr-Tic-NH--CH2 --CH--(Ph)2] ?
Ans. 963

Qu. Likewise for N[C@@H](Cc1ccc(O)cc1)C(=O)N1Cc2ccccc2C[C@H]1C(=O)N[C@H]1CCc2ccccc2C1 [Example 19, H-Tyr-Tic-2-S-At (At = aminotetralin)] ?
Ans. 44.9

---

Target: δ opioid receptor (Rattus norvegicus)
Sequence (P33533 whole entry): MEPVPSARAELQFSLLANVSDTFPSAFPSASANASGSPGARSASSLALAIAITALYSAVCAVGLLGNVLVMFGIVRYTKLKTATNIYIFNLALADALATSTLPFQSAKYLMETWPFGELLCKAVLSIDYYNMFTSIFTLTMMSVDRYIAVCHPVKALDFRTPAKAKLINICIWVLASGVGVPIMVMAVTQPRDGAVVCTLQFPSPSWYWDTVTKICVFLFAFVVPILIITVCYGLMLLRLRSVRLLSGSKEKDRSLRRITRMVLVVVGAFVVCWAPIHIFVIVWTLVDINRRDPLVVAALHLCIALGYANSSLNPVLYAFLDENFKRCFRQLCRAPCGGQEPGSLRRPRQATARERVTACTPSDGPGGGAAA
Where a SMILES comes first, the peptide text is derived from it. [ ]: non-standard residue; d: D form. The star is where a group is joined. Tic = O=C(O)[C@@H]1Cc2ccccc2CN1; NHPhenethyl = c1ccc(CCN*)cc1
VALUE TYPE: Ki

Qu. Reported Ki for NC(=O)C(CNC(=O)[C@@H]1Cc2ccccc2CN1C(=O)[C@@H](N)Cc1ccc(O)cc1)c1ccccc1 (single isomer, unassigned) [Example 17] : what is it?
Ans. 21.5 nM

Qu. Likewise for CCOC(=O)C(CNC(=O)[C@@H]1Cc2ccccc2CN1C(=O)[C@@H](N)Cc1ccc(O)cc1C)c1ccccc1 (single isomer, unassigned) [Example 31] ?
Ans. 1.22 nM

Qu. Likewise for N[C@@H](Cc1ccc(O)cc1)C(=O)N1Cc2ccccc2C[C@H]1C(=O)NCC(c1ccc(Cl)cc1)c1ccc(Cl)cc1 [Example 26] ?
Ans. 2.82 nM

Qu. Likewise for CCOC(=O)C(CNC(=O)[C@@H]1Cc2ccccc2CN1C(=O)[C@@H](N)Cc1ccc(O)cc1)c1ccccc1 (single isomer, unassigned) [Example 15] ?
Ans. 0.569 nM

Qu. Likewise for N[C@@H](Cc1ccc(O)cc1)C(=O)N1Cc2ccccc2C[C@H]1C(=O)NCC(CO)c1ccccc1 (single isomer, unassigned) [Example 28] ?
Ans. 7.8 nM

Qu. Likewise for N[C@@H](Cc1ccc(O)cc1)C(=O)N1Cc2ccccc2C[C@H]1C(=O)N[C@@H]1CCc2ccccc2C1 [Example 20, H-Tyr-Tic-2-R-At (At = aminotetralin)] ?
Ans. 1.72 nM

Qu. Likewise for Nc1ccc(C(CNC(=O)[C@@H]2Cc3ccccc3CN2C(=O)[C@@H](N)Cc2ccc(O)cc2)c2ccc(N)cc2)cc1 [Example 25] ?
Ans. 2.67 nM

Qu. Likewise for NC(Cc1ccc(O)cc1)C(=O)N1Cc2ccccc2CC1C(=O)NC1CC1c1ccccc1 (single isomer, unassigned) [Example 21] ?
Ans. 4.13 nM

Qu. Likewise for Cc1ccccc1CCNC(=O)[C@@H]1Cc2ccccc2CN1C(=O)[C@@H](N)Cc1ccc(O)cc1 [Example 6] ?
Ans. 1.75 nM

Qu. Likewise for N[C@@H](Cc1ccc(O)cc1)C(=O)N1Cc2ccccc2C[C@H]1C(=O)N[C@H]1CCc2ccccc2C1 [Example 19, H-Tyr-Tic-2-S-At (At = aminotetralin)] ?
Ans. 4.55 nM

Qu. Likewise for NC(Cc1ccc(O)cc1)C(=O)N1Cc2ccccc2CC1C(=O)NCC(c1ccccc1)c1ccccc1 (stereo not drawn) [Example 1, H-Tyr-Tic-NH--CH2 --CH--(Ph)2] ?
Ans. 0.981 nM

Qu. Likewise for CCOC(=O)C(CNC(=O)[C@@H]1Cc2ccccc2CN1C(=O)[C@@H](N)Cc1ccc(O)cc1C)c1ccccc1 (single isomer, unassigned) [Example 30] ?
Ans. 1.63 nM

Qu. Likewise for NC(=O)C(CNC(=O)[C@@H]1Cc2ccccc2CN1C(=O)[C@@H](N)Cc1ccc(O)cc1)c1ccccc1 (single isomer, unassigned) [Example 18] ?
Ans. 22.8 nM

Qu. Likewise for N[C@@H](Cc1ccc(O)cc1)C(=O)N1Cc2ccccc2C[C@H]1C(=O)NCC(c1ccc([N+](=O)[O-])cc1)c1ccc([N+](=O)[O-])cc1 [Example 24] ?
Ans. 7.17 nM

Qu. Likewise for N[C@@H](Cc1ccc(O)cc1)C(=O)N1Cc2ccccc2C[C@H]1C(=O)NCCc1ccccc1 [H-Tyr-Tic-NH--CH2 --CH2 --Ph, reference compound] (H-Tyr-[Tic]-NHPhenethyl) ?
Ans. 5.22 nM

Qu. Likewise for N[C@@H](Cc1ccc(O)cc1)C(=O)N1Cc2ccccc2C[C@H]1C(=O)NCCc1ccccc1-c1ccccc1 [Example 7] ?
Ans. 4.76 nM

Qu. Likewise for N[C@@H](Cc1ccc(O)cc1)C(=O)N1Cc2ccccc2C[C@H]1C(=O)NCCc1ccccc1Br [Example 5] ?
Ans. 1.24 nM

Qu. Likewise for N[C@@H](Cc1ccc(O)cc1)C(=O)N1Cc2ccccc2C[C@H]1C(=O)NCC(C1CCCCC1)C1CCCCC1 [Example 23] ?
Ans. 11.3 nM

Qu. Likewise for NC(Cc1ccc(O)cc1)C(=O)N1Cc2ccccc2CC1C(=O)NC1CC1c1ccccc1 (single isomer, unassigned) [Example 22] ?
Ans. 1.36 nM

Qu. Likewise for N[C@@H](Cc1ccc(O)cc1)C(=O)N1Cc2ccccc2C[C@H]1C(=O)NCCc1ccccc1[N+](=O)[O-] [Example 29] ?
Ans. 7.7 nM

Qu. Likewise for CCOC(=O)C(CNC(=O)[C@@H]1Cc2ccccc2CN1C(=O)[C@@H](N)Cc1ccc(O)cc1)c1ccccc1 (single isomer, unassigned) [Example 16] ?
Ans. 3.03 nM

Qu. Likewise for N[C@@H](Cc1ccc(O)cc1)C(=O)N1Cc2ccccc2C[C@H]1C(=O)NCC(CO)c1ccccc1 (single isomer, unassigned) [Example 27] ?
Ans. 1.26 nM

Reference source: patent US6150335A
